measuredOn: furin, P09958
Sequence (P09958 whole entry): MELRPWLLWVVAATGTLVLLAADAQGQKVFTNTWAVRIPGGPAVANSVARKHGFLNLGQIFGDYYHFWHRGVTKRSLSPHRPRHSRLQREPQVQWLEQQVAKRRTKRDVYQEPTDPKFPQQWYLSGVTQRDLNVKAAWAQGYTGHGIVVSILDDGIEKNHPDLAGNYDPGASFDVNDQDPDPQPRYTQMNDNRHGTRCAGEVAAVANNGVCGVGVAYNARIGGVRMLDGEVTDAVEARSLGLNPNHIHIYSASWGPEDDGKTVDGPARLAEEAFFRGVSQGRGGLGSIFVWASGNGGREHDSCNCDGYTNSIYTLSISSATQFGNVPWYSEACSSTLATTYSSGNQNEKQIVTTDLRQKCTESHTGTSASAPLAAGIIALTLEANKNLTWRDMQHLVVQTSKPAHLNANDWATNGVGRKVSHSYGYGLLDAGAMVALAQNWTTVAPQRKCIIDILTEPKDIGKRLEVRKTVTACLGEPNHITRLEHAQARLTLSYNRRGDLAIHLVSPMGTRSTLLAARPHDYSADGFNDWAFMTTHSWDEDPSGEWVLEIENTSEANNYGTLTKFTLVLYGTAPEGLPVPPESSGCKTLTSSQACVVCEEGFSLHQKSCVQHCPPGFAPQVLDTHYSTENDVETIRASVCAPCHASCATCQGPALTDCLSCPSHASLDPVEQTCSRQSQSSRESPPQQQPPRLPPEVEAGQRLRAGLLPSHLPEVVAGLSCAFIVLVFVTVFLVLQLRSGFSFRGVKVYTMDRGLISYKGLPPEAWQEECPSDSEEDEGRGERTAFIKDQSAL
assayDetails: furin cleavage Z-score vs untreated control; higher = more cleavage, active = 3.5 or more, inactive = 1 or less, 8 variable residues between constant flanks;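 note: purified furin at 1:10 enzyme:substrate in 50 mM HEPES pH 7.5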
recordedConditions: 15 min
This is one part of the list. No count for the full screen is at hand.
Catalogue of furin cleavage Z-score values
Answer field: number only, no words.

In the examples that follow, each entry is paired with its recorded furin cleavage Z-score.
CARPGRLDRHAGNASASA [FS-917]    -0.871
CAFSPRRHWTAGNASASA [HC307]    -0.669
CAFQNRRARHAGNASASA [FS-1589]    11.1

The sequence CARHGRRRRHAGNASASA [FS-1156] showed furin cleavage Z-score equal to 11.5
